Reference for the values: patent US20250214986A1

Test: Pharmacokinetic assay in mice
Format: in vivo, male ICR mice
Conditions: male, ICR, mouse, plasma; mice, oral intragastric administration, 10 mg/kg
Item-by-item account of AUC(0-t)
Give just the number in ng·h/mL; leave the unit off.

>>> numeric_readout("Cc1cnc(-c2cc(O[C@@H](C)[C@@H](C)O)cc(C(=O)N[C@H](C)c3cnc(C(F)(F)F)nc3)c2F)s1 [Compound of formula I]")
15000

Please find the next compound below.
q: Give its AUC(0-t) value. Item: Cc1cnc(-c2cc(O[C@@H]3CCOC3)cc(C(=O)N[C@H](C)c3cnc(C(F)(F)F)nc3)c2)s1 [Control compound 1, reference compound]
a: 5200

---

Experiment: Dynamic solubility experiment at 37° C.
Format: physicochemical
Settings: FaSSIF, 1 h
Where a name gives a salt, the structure may show the parent alone.
QUANTITY_MEASURED: Crystalline form change

>>> result("Cc1cnc(-c2cc(O[C@@H](C)[C@@H](C)O)cc(C(=O)N[C@H](C)c3cnc(C(F)(F)F)nc3)c2F)s1 [Crystalline form A of maleate]")
"Yes^a"
>>> result("Cc1cnc(-c2cc(O[C@@H](C)[C@@H](C)O)cc(C(=O)N[C@H](C)c3cnc(C(F)(F)F)nc3)c2F)s1 [Free base crystalline form A]")
"No"
>>> result("Cc1cnc(-c2cc(O[C@@H](C)[C@@H](C)O)cc(C(=O)N[C@H](C)c3cnc(C(F)(F)F)nc3)c2F)s1 [Crystalline form A of hydrochloride]")
"Yes^a"

---

Item-by-item account of HPLC purity Relative to starting (%)
Assay: Solid state stability (XRPD and HPLC)
Format: physicochemical
Settings: 40° C./75% RH/uncovered, 1 week
Where a name gives a salt, the structure may show the parent alone.
Give just the number in %; leave the unit off.

Illustrative cases are given below, each with its answer.
>>> numeric_readout("Cc1cnc(-c2cc(O[C@@H](C)[C@@H](C)O)cc(C(=O)N[C@H](C)c3cnc(C(F)(F)F)nc3)c2F)s1 [Crystalline form A of hydrochloride]")
99.99
>>> numeric_readout("Cc1cnc(-c2cc(O[C@@H](C)[C@@H](C)O)cc(C(=O)N[C@H](C)c3cnc(C(F)(F)F)nc3)c2F)s1 [Crystalline form A of p-toluenesulfonate]")
100.00
>>> numeric_readout("Cc1cnc(-c2cc(O[C@@H](C)[C@@H](C)O)cc(C(=O)N[C@H](C)c3cnc(C(F)(F)F)nc3)c2F)s1 [Crystalline form A of maleate]")
99.94

Please find the next compound below.
q: Give its HPLC purity Relative to starting (%) value. Item: Cc1cnc(-c2cc(O[C@@H](C)[C@@H](C)O)cc(C(=O)N[C@H](C)c3cnc(C(F)(F)F)nc3)c2F)s1 [Free base crystalline form A]
a: 100.14

---

Assay: Dynamic solubility experiment at 37° C.
Type: physicochemical
Settings: SGF, 1 h
Counter-ions that a name gives are not always drawn.
QUANTITY_MEASURED: S: solubility (µg/mL)
Give just the number in µg/mL; leave the unit off.

Illustrative cases are given below, each with its answer.
>>> numeric_readout("Cc1cnc(-c2cc(O[C@@H](C)[C@@H](C)O)cc(C(=O)N[C@H](C)c3cnc(C(F)(F)F)nc3)c2F)s1 [Crystalline form A of p-toluenesulfonate]")
37
>>> numeric_readout("Cc1cnc(-c2cc(O[C@@H](C)[C@@H](C)O)cc(C(=O)N[C@H](C)c3cnc(C(F)(F)F)nc3)c2F)s1 [Free base crystalline form A]")
13
>>> numeric_readout("Cc1cnc(-c2cc(O[C@@H](C)[C@@H](C)O)cc(C(=O)N[C@H](C)c3cnc(C(F)(F)F)nc3)c2F)s1 [Crystalline form A of maleate]")
10

q: Give its S: solubility value. Item: Cc1cnc(-c2cc(O[C@@H](C)[C@@H](C)O)cc(C(=O)N[C@H](C)c3cnc(C(F)(F)F)nc3)c2F)s1 [Crystalline form A of hydrochloride]
a: 14

---

Test: Dynamic solubility experiment at 37° C.
Assay type: physicochemical
Settings: H2O, 4 h
Description: In the test, the purity, dynamic solubility and stability were tested using an Agilent 1260 high-performance liquid chromatograph, the molar ratio of salt-forming ions was tested using ion chromatography, and the analytical conditions are shown in Tables A-4 and A-5 below. Solids at a feeding concentration of 10 mg/mL (calculated based on free base) were rotationally mixed with corresponding vehicles at 37° C. […] The HPLC concentrations and pH values of the filtrates were determined. […]
Structures can show the parent of a compound that is named as a salt.
Item-by-item account of S: solubility
Give just the number in µg/mL; leave the unit off.

>>> numeric_readout("Cc1cnc(-c2cc(O[C@@H](C)[C@@H](C)O)cc(C(=O)N[C@H](C)c3cnc(C(F)(F)F)nc3)c2F)s1 [Crystalline form A of p-toluenesulfonate]")
5
>>> numeric_readout("Cc1cnc(-c2cc(O[C@@H](C)[C@@H](C)O)cc(C(=O)N[C@H](C)c3cnc(C(F)(F)F)nc3)c2F)s1 [Free base crystalline form A]")
3
>>> numeric_readout("Cc1cnc(-c2cc(O[C@@H](C)[C@@H](C)O)cc(C(=O)N[C@H](C)c3cnc(C(F)(F)F)nc3)c2F)s1 [Crystalline form A of hydrochloride]")
3

Please find the next molecule below.
q: Give its S: solubility value. Item: Cc1cnc(-c2cc(O[C@@H](C)[C@@H](C)O)cc(C(=O)N[C@H](C)c3cnc(C(F)(F)F)nc3)c2F)s1 [Crystalline form A of maleate]
a: 7

---

Item-by-item account of HPLC purity Relative to starting (%)
Experiment: Solid state stability (XRPD and HPLC)
Type: physicochemical
Settings: 60° C./sealed, 1 day
Structures can show the parent of a compound that is named as a salt.
Give just the number in %; leave the unit off.

Illustrative cases are given below, each with its answer.
>>> numeric_readout("Cc1cnc(-c2cc(O[C@@H](C)[C@@H](C)O)cc(C(=O)N[C@H](C)c3cnc(C(F)(F)F)nc3)c2F)s1 [Crystalline form A of p-toluenesulfonate]")
100.00
>>> numeric_readout("Cc1cnc(-c2cc(O[C@@H](C)[C@@H](C)O)cc(C(=O)N[C@H](C)c3cnc(C(F)(F)F)nc3)c2F)s1 [Crystalline form A of maleate]")
99.89
>>> numeric_readout("Cc1cnc(-c2cc(O[C@@H](C)[C@@H](C)O)cc(C(=O)N[C@H](C)c3cnc(C(F)(F)F)nc3)c2F)s1 [Crystalline form A of hydrochloride]")
99.99

Please find the next compound below.
q: Give its HPLC purity Relative to starting (%) value. Item: Cc1cnc(-c2cc(O[C@@H](C)[C@@H](C)O)cc(C(=O)N[C@H](C)c3cnc(C(F)(F)F)nc3)c2F)s1 [Free base crystalline form A]
a: 100.07

---

Assay: Dynamic solubility experiment at 37° C.
Format: physicochemical
Conditions: FeSSIF, 1 h
Where a name gives a salt, the structure may show the parent alone.
QUANTITY_MEASURED: Crystalline form change

>>> result("Cc1cnc(-c2cc(O[C@@H](C)[C@@H](C)O)cc(C(=O)N[C@H](C)c3cnc(C(F)(F)F)nc3)c2F)s1 [Free base crystalline form A]")
"No"
>>> result("Cc1cnc(-c2cc(O[C@@H](C)[C@@H](C)O)cc(C(=O)N[C@H](C)c3cnc(C(F)(F)F)nc3)c2F)s1 [Crystalline form A of hydrochloride]")
"Yes^a"
>>> result("Cc1cnc(-c2cc(O[C@@H](C)[C@@H](C)O)cc(C(=O)N[C@H](C)c3cnc(C(F)(F)F)nc3)c2F)s1 [Crystalline form A of maleate]")
"Yes^a"

---

Assay: Dynamic solubility experiment at 37° C.
Assay type: physicochemical
Details: FaSSIF, 24 h
Counter-ions that a name gives are not always drawn.
QUANTITY_MEASURED: Crystalline form change

>>> result("Cc1cnc(-c2cc(O[C@@H](C)[C@@H](C)O)cc(C(=O)N[C@H](C)c3cnc(C(F)(F)F)nc3)c2F)s1 [Crystalline form A of hydrochloride]")
"Yes^a"
>>> result("Cc1cnc(-c2cc(O[C@@H](C)[C@@H](C)O)cc(C(=O)N[C@H](C)c3cnc(C(F)(F)F)nc3)c2F)s1 [Free base crystalline form A]")
"No"
>>> result("Cc1cnc(-c2cc(O[C@@H](C)[C@@H](C)O)cc(C(=O)N[C@H](C)c3cnc(C(F)(F)F)nc3)c2F)s1 [Crystalline form A of maleate]")
"Yes^a"

---

Item-by-item account of pH of filtrate
Assay: Dynamic solubility experiment at 37° C.
Type: physicochemical
Details: H2O, 24 h
Where a name gives a salt, the structure may show the parent alone.
Please reply with the number alone, leaving off any unit.

q: Give its pH of filtrate value. Item: Cc1cnc(-c2cc(O[C@@H](C)[C@@H](C)O)cc(C(=O)N[C@H](C)c3cnc(C(F)(F)F)nc3)c2F)s1 [Crystalline form A of p-toluenesulfonate]
a: 1.8

q: Give its pH of filtrate value. Item: Cc1cnc(-c2cc(O[C@@H](C)[C@@H](C)O)cc(C(=O)N[C@H](C)c3cnc(C(F)(F)F)nc3)c2F)s1 [Crystalline form A of hydrochloride]
a: 2.1

q: Give its pH of filtrate value. Item: Cc1cnc(-c2cc(O[C@@H](C)[C@@H](C)O)cc(C(=O)N[C@H](C)c3cnc(C(F)(F)F)nc3)c2F)s1 [Crystalline form A of maleate]
a: 2.2

q: Give its pH of filtrate value. Item: Cc1cnc(-c2cc(O[C@@H](C)[C@@H](C)O)cc(C(=O)N[C@H](C)c3cnc(C(F)(F)F)nc3)c2F)s1 [Free base crystalline form A]
a: 9.0
